Listed here are compounds together with their documented log10(IC50).
- Measured On: Mitogen-activated protein kinase 14 (Homo sapiens, UniProt Q16539)
- Sequence (Q16539 whole entry): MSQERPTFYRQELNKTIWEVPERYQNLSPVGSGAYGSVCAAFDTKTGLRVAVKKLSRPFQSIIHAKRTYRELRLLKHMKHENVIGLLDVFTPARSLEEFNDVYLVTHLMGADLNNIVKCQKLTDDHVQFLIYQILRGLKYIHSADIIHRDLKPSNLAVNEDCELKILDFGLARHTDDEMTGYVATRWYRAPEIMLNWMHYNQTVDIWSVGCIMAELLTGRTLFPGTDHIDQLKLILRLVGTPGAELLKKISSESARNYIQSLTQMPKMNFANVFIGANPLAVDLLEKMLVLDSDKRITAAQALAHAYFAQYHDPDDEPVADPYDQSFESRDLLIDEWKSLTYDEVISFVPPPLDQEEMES
- Test Details: Inhibition of human recombinant p38alpha MAPK expressed in Escherichia coli by radioisotopic protein kinase assay
Would you kindly interpret these values as log10 of IC50 expressed in nM?

Using the record for C[C@H](Nc1nccc(-c2c(-c3ccc(F)cc3)ncn2Cc2cccc(C(N)=O)c2)n1)c1ccccc1 , state its measured log10(IC50). 1.74

New cases:
Give the reported log10(IC50) for this compound. N#Cc1cccc(Cn2cnc(-c3ccc(F)cc3)c2-c2ccnc(N)n2)c1 2.00

Consider the compound C[C@H](Nc1nccc(-c2[nH]c(Cc3cccc(C#N)c3)nc2-c2ccc(F)cc2)n1)c1ccccc1 . State its measured log10(IC50). 1.98

Fill in log10(IC50) for record C[C@H](Nc1nccc(-c2c(-c3ccc(F)cc3)ncn2Cc2ccc(C(N)=O)cc2)n1)c1ccccc1 1.75

Answer with reported log10(IC50) of COc1ccc(CNc2nccc(-c3c(-c4ccc(F)cc4)ncn3Cc3cccc(C#N)c3)n2)cc1 2.28
